- Test system: Aedes aegypti
- Assay Notes: Mosquitocidal activity against fourth-instar larvae of Aedes aegypti assessed as mortality after 24 hr
- Format: functional, organism-based
Calls of active or inactive are those of the source. The rule behind the calls is not given here.
Labels: active, inactive

[[record]]
compound = "C/C=C/c1cc(OC)c(OC)cc1OC [TRANS-ASARONE]"
answer_label = "active"

[[record]]
compound = "COc1cc(OC)c(OC)cc1C=O"
answer_label = "inactive"

[[record]]
compound = "CCCCCCCC/C=C\\CCCCCCCC(=O)O"
answer_label = "inactive"

[[record]]
compound = "CC(C)=CCC/C(C)=C/CO"
answer_label = "inactive"


###

- System: Fusarium oxysporum
- Assay Notes: Antimicrobial activity against Fusarium oxysporum at 100 ug/ml after 72 hr
- Type: functional, organism-based
The source made the active and inactive calls. No cut-off for these calls is given here.
Experimental Endpoint: Activity

[[record]]
compound = "COc1cc(OC)c(OC)cc1C=O"
target = "Fusarium oxysporum"
observed_result = "inactive"

[[record]]
compound = "C/C=C/c1cc(OC)c(OC)cc1OC [TRANS-ASARONE]"
target = "Fusarium oxysporum"
observed_result = "inactive"

[[record]]
compound = "CCCCCCCC/C=C\\CCCCCCCC(=O)O"
target = "Fusarium oxysporum"
observed_result = "inactive"

[[record]]
compound = "CC(C)=CCC/C(C)=C/CO"
target = "Fusarium oxysporum"
observed_result = "inactive"


Recorded values, source ChEMBL document CHEMBL3045214.
